- SYSTEM: Transcription factor GATA-4 (Mus musculus)
- PROTOCOL_SUMMARY: Modulation of mouse GATA4 expressed in Chlorocebus aethiops COS1 cells harboring NP-112 reporter gene assessed as BNP promoter-driven transcriptional activity at 10 uM after 24 hrs by luciferase reporter gene assay relative to control
- Format: cell-based
Classification by Activity | ranges: LOW: < 70%; MEDIUM: ≥ 70% and < 90%; HIGH: ≥ 90%

# MOLECULE, LABEL
data = [
    ("CCC(=O)c1ccc(OCc2c(-c3ccccc3)noc2C)cc1", "MEDIUM"),
    ("CCN(c1ccc(NC(=O)c2c(-c3ccccc3)noc2C)cc1)C(C)C", "MEDIUM"),
    ("Cc1onc(-c2ccccc2)c1C(=O)Nc1ccc(C#C[Si](C)(C)C)cc1", "HIGH"),
    ("CCN(CC)c1ccc(NC(=O)c2cn(C)cc2-c2cc(C)on2)cc1", "HIGH"),
    ("CCN(CC)c1ccc(NC(=O)c2cnsc2)cc1", "LOW"),
    ("CCN(CC)c1ccc(NC(=O)c2c(-c3ccccc3Cl)noc2C)cc1", "HIGH"),
    ("CCN(CC)c1ccc(NC(=O)c2c(C)nc3ccccn23)cc1", "HIGH"),
    ("CCN(CC)c1ccc(NC(=O)c2cnoc2-c2ccccc2)cc1", "LOW"),
]

Using the reported Activity, which band applies to CCC(OC)c1ccc(OCc2c(-c3ccccc3)noc2C)cc1 (racemic) ?
MEDIUM
